Origin of the recorded values: ChEMBL document CHEMBL1156673

# protocol.text: Therapeutic index, ID50 for human THP1 cells to ID50 for Trypanosoma cruzi
# Format: cell-based
# condition.info: THP-1 cells versus Trypanosoma cruzi, read-out: TI
observed.property: selectivity ratio

Sample records with selectivity ratio:
compound	selectivity ratio
O=C(Cn1ccnc1[N+](=O)[O-])NCc1ccccc1	> 40
C/C(=N\NC(=S)N(C)C)c1ccc([N+](=O)[O-])cc1	> 1430
CNC(=S)N/N=C(\C)c1ccc([N+](=O)[O-])cc1	> 16

Next up:
For the compound CC1CS(=O)(=O)CCN1/N=C/c1ccc([N+](=O)[O-])o1 (centres undefined) , report selectivity ratio.
> 38
